Test system: HCC-2998 colon
Experiment: NCI tumour cell line growth inhibition, 48 h
Result type: TGI

Case S=C1NC2=C(CSC/C2=C\c2ccc(Cl)cc2)C(c2ccc(Cl)cc2)N1 (stereo not given) , HCC-2998 colon, TGI recorded as 77.6 µM

New cases:
Case C/C(O)=C(\C=N\C(=S)N=Nc1c(O)[nH]c2ccccc12)C(=O)Nc1ccccc1C , HCC-2998 colon, TGI recorded as > 100 µM

Case CC(C)(C)OC(=O)N(O)[C@@H]1CC[C@H](n2cnc3c(N)ncnc32)C1 , HCC-2998 colon, TGI recorded as > 100 µM

====

A collection of compounds and their measured log10 TGI
System: HT29 colon
Experiment: NCI tumour cell line growth inhibition, 48 h
A value of 2 here means TGI of 100 in µM, since values are log10.

Lab note: measured log10 TGI of CNC(=O)ON(C(C)=O)C(=O)NC was 2.38

Lab note: measured log10 TGI of Cc1cccc(NC(=O)C(=O)C(C2OC(=O)c3ccccc32)[N+](=O)[O-])c1C (configuration not stated) was 1.55

Lab note: measured log10 TGI of CN(C)c1ccc(/C=C(\C#N)c2cc3ccccc3[nH]2)cc1 was 1.20

Lab note: measured log10 TGI of COC(=O)/C=C/CCC#Cc1ccccc1C#CCC/C=C/C(=O)OC was 1.61

Lab note: measured log10 TGI of Cc1ccccc1NC(=O)Cc1nc2ccccc2s1 was 1.58

Next compound, please.
Lab note: measured log10 TGI of CN1CCC2(CC1)N=C(SCC(=O)Nc1cnc3ccccc3c1)C(c1ccc(Br)cc1)=N2 was 0.56

====

Test system: KM20L2 colon
Assay: NCI tumour cell line growth inhibition, 48 h
Result type: TGI (µM)
Give just the numeric value; µM need not be written.

These solved cases illustrate the format of a correct answer.
Lab note: measured TGI of CC(C)c1oc(=O)cc2c1C(O)C1OC(=O)C3(C)C(O)C4OC4C2(C)C13 (centres undefined) was 12.8

Lab note: measured TGI of CCOC(=O)C1=C(OC(OCC)C([Se]c2ccccc2)C(C)C)CCC1 (centres undefined) was 63.3

Lab note: measured TGI of COc1cccc2c1C(=O)c1c(O)c3c(c(O)c1C2=O)C[C@@](O)(C(=O)CO)CC3OC1CC(N)C(OC2CCCCO2)C(C)O1 (some centres undefined) was 4.98

New cases:
Lab note: measured TGI of CN(C)NC1=C([N+](=O)[O-])C=NN(c2ccccc2)C1 was 3.54

Lab note: measured TGI of Cc1cc(O)c2c(c1)C(=O)c1c(c(O)cc(O)c1-c1c(O)cc(O)c3c1C(=O)c1cc(C)cc(O)c1C3=O)C2=O was 52.2

Lab note: measured TGI of Cc1cccc(NC(=O)C(=O)C(C2OC(=O)c3ccccc32)[N+](=O)[O-])c1C (centres undefined) was 42.7

====

Test system: COLO 205 colon
Assay: NCI tumour cell line growth inhibition, 48 h; in the data active means GI50 below about 0.43 µM; inactive means the rest
Can you answer with just one of these options? 1 for active, -1 for inactive

Observe how each entry below is paired with its result.
Query: Write down the call the test reported for this compound. Item: O=C1/C(=C\c2ccc(F)cc2)CN(C(=O)c2ccccc2F)C/C1=C\c1ccc(F)cc1
Result: -1

Query: Write down the call the test reported for this compound. Item: CC12OC(CC(O)C1O)n1c3ccccc3c3c4c(c5c6ccccc6n2c5c31)C(=O)N(CCN1CCOCC1)C4=O (stereo not given)
Result: -1

Query: Write down the call the test reported for this compound. Item: O=C1C=C(NCCO)c2nccc3c2c1nc1ccccc13
Result: -1

Query: Write down the call the test reported for this compound. Item: O=C(Oc1ccccc1)N(c1ccccc1)c1ccccc1
Result: -1

Next up:
Query: Write down the call the test reported for this compound. Item: COc1cccc2c1C(=O)c1c(O)c3c(c(O)c1C2=O)C[C@@](O)(C(=O)CO)CC3OC1CC(N)C(OC2CCCCO2)C(C)O1 (stereo not given in full)
Result: 1
